- test_name: Solubility
- Type: physicochemical
- assay_context: pH 7.4, aqueous buffer; Table 2
observation_type: Solubility

compound | observation_type | result
O=C(CN1CCOc2ccccc21)Nc1nnc(-c2ccccn2)[nH]1 [compound 47] | Solubility | 80.2 µM

* * *

- target_entity: Tau-FynSH3 interaction (Homo sapiens (Human))
- Sequence (P10636 other isoform, or with tags, fused parts or gaps): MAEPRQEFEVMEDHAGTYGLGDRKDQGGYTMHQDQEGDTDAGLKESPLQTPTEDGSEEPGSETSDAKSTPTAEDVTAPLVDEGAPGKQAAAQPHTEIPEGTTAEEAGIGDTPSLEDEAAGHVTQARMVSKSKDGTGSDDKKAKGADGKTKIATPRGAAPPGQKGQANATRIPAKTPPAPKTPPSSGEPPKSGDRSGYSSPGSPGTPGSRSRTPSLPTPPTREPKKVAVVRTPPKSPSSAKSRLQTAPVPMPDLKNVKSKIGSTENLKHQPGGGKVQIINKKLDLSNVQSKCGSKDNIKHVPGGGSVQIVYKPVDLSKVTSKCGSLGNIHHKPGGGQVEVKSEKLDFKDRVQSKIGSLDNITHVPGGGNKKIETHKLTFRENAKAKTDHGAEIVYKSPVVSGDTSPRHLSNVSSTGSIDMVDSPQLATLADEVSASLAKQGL
- test_name: Tau-FynSH3 AlphaScreen
- Assay type: binding
- assay_context: Table 2; Tau-FynSH3 inhibitory activity in the AlphaScreen; read-out: IC50

compound | IC50
O=C(CN1C(=O)CCc2ccccc21)Nc1nnc(-c2ccccn2)[nH]1 [compound no. 2] | 2.72 µM
O=C(CCN1C(=O)COc2ccccc21)Nc1nnc(-c2ccccn2)[nH]1 [compound 43] | > 100 µM
O=C(CN1CCSc2cc(C(=O)O)ccc21)Nc1nnc(-c2ccccn2)[nH]1 [compound 64] | < 0.2 µM

* * *

pIC50 values, listed per item
- target_entity: Tau-FynSH3 interaction (Homo sapiens (Human))
- test_name: Tau-FynSH3 AlphaScreen
- Type: binding
- assay_context: Table 3; read-out: Alpha screen IC50
pIC50: −log10 of the molar value.
observation_type: pIC50

compound | target_entity | number
Cc1ccc2c(c1)CCC(=O)N2CC(=O)Nc1nnc(-c2ccccn2)[nH]1 [compound 54] | Tau-FynSH3 interaction (Homo sapiens (Human)) | 5.85
O=C(CCN1C(=O)CSc2cc(F)c(F)cc21)Nc1nnc(-c2ccccn2)[nH]1 [compound 9] | Tau-FynSH3 interaction (Homo sapiens (Human)) | 5.53
O=c1sc2ccccc2n1Cc1nnc(-c2ccccn2)[nH]1 [compound 30] | Tau-FynSH3 interaction (Homo sapiens (Human)) | 4.97
O=C(CN1C(=O)CCSc2ccccc21)Nc1nnc(-c2ccccn2)[nH]1 [compound 18] | Tau-FynSH3 interaction (Homo sapiens (Human)) | 5.45
O=C(CN1CCSc2ccccc21)Nc1nnc(-c2ccccn2)[nH]1 [compound no. 20] | Tau-FynSH3 interaction (Homo sapiens (Human)) | 6.26
CC1(C)Sc2ccccc2N(CC(=O)Nc2nnc(-c3ccccn3)[nH]2)C1=O [compound 19] | Tau-FynSH3 interaction (Homo sapiens (Human)) | 5.82
O=C(CN1C(=O)CSc2cc(F)c(F)cc21)Nc1nnc(-c2ccccn2)[nH]1 [compound no. 14] | Tau-FynSH3 interaction (Homo sapiens (Human)) | 6.05
O=C(CN1C(=O)CSc2cc(Cl)ccc21)Nc1nnc(-c2ccccn2)[nH]1 [compound no. 13] | Tau-FynSH3 interaction (Homo sapiens (Human)) | 6.03

* * *

- test_name: Metabolic stability in mouse liver microsomes
- Assay type: in vitro ADME
- assay_context: mouse, liver microsomes, Table 3, read-out: ADME t1/2 (min): MLMt1/2

molecule | half-life (min)
O=C(CN1C(=O)CSc2cc(F)ccc21)Nc1nnc(-c2ccccn2)[nH]1 [compound no. 12] | 146
O=C(CN1C(=O)CSc2ccc(Cl)cc21)Nc1nnc(-c2ccccn2)[nH]1 [compound 16] | 26
O=C(CN1C(=O)CSc2ccc(F)cc21)Nc1nnc(-c2ccccn2)[nH]1 [compound 15] | 53
O=C(CN1C(=O)CCSc2ccccc21)Nc1nnc(-c2ccccn2)[nH]1 [compound 18] | 40
O=C(CCN1C(=O)CSc2cc(Cl)ccc21)Nc1nnc(-c2ccccn2)[nH]1 [compound 8] | 18
O=C(CCN1C(=O)CSc2cc(F)c(F)cc21)Nc1nnc(-c2ccccn2)[nH]1 [compound 9] | 20
O=C(CCN1C(=O)CSc2cc(F)ccc21)Nc1nnc(-c2ccccn2)[nH]1 [compound 7] | 22
O=C(Cn1c(=O)sc2ccccc21)Nc1nnc(-c2ccccn2)[nH]1 [compound 26] | 82
